Data provenance is the supplement of paper PMC6555819.

- Tested on: RARg homodimer (NR concentration 270 nM)
- ASSAY_PROCEDURE: PBM binding z-score (relative to random genomic background probes); higher = stronger binding; sequences stand for … in GC…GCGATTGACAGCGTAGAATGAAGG
Attribute: PBM binding z-score

Example sequences with recorded PBM binding z-score:
>>> val("AGAACGAGGTTATACGTAGATCAGGGAAGAAAGT")
1.07
>>> val("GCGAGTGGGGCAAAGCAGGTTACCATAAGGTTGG")
0.332

get_value(item= CCTGCTAGGTCATGGTCAGCTAGTCTACAGTATG , readout=PBM binding z-score) returns 4.82

get_value(item= CCGACTGGGGAATAAGGTTACCATAAGCCAGCCC , readout=PBM binding z-score) returns 0.223

get_value(item= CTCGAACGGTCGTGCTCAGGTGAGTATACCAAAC , readout=PBM binding z-score) returns 0.489

get_value(item= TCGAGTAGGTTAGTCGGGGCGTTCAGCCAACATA , readout=PBM binding z-score) returns -0.632

get_value(item= TCGAGTAGGTTACTAATGGGGCATTCAGCTTTCT , readout=PBM binding z-score) returns 0.0579

get_value(item= ACTATCAGGCCAAGTTTGGGTCACTCAAACAAAG , readout=PBM binding z-score) returns 2.11

get_value(item= CCTCGGAGGACAGAAGGTCAGTGCTGTCCGCTTT , readout=PBM binding z-score) returns 3.23

get_value(item= TGAATGAGGTTATAATATCAGGGAACGTTGCAAA , readout=PBM binding z-score) returns 1.12

get_value(item= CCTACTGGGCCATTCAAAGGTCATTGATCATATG , readout=PBM binding z-score) returns 3.67

get_value(item= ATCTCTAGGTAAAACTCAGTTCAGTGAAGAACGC , readout=PBM binding z-score) returns 0.586
